biological target: Misshapen-like kinase 1 (Homo sapiens); conditions: at 0.1 µM
readout: inhibition (%)

>  <structure_smiles_string>
CN1CCC(n2cnc(-c3ccc(F)cc3)c2-c2ccnc(N)n2)CC1

>  <assayed_target>
Misshapen-like kinase 1 (Homo sapiens)

>  <readout>
inhibition

>  <numeric_readout>
4.61

$$$$
>  <structure_smiles_string>
CC(=O)Nc1cccc(C#Cc2cncnc2Nc2ccc(OCc3cccc(F)c3)c(Cl)c2)c1

>  <assayed_target>
Misshapen-like kinase 1 (Homo sapiens)

>  <readout>
inhibition

>  <numeric_readout>
2.21

$$$$
>  <structure_smiles_string>
Nc1ncc(-c2cccc(S(N)(=O)=O)c2)c2scc(-c3ccc(F)c(Cl)c3)c12

>  <assayed_target>
Misshapen-like kinase 1 (Homo sapiens)

>  <readout>
inhibition

>  <numeric_readout>
70.9

$$$$
>  <structure_smiles_string>
CNC(=O)c1cccc(C#Cc2cncnc2Nc2ccc(OCc3cccc(F)c3)c(Cl)c2)c1

>  <assayed_target>
Misshapen-like kinase 1 (Homo sapiens)

>  <readout>
inhibition

>  <numeric_readout>
-0.5

$$$$
>  <structure_smiles_string>
COc1ccc2[nH]c3c4[nH]c5ccc(OC)cc5c4c4c(c3c2c1)C(=O)NC4=O

>  <assayed_target>
Misshapen-like kinase 1 (Homo sapiens)

>  <readout>
inhibition

>  <numeric_readout>
81.3

$$$$
>  <structure_smiles_string>
CCn1c(-c2nonc2N)nc2c(C#CC(C)(C)O)nc(OC[C@H](N)c3ccccc3)cc21

>  <assayed_target>
Misshapen-like kinase 1 (Homo sapiens)

>  <readout>
inhibition

>  <numeric_readout>
6.18

$$$$
>  <structure_smiles_string>
CCc1nn2ncccc2c1-c1ccnc(NC2CC2)n1

>  <assayed_target>
Misshapen-like kinase 1 (Homo sapiens)

>  <readout>
inhibition

>  <numeric_readout>
3.11

$$$$
>  <structure_smiles_string>
Cc1cccc2c1NC(=O)/C2=N\Nc1ccc(S(N)(=O)=O)cc1

>  <assayed_target>
Misshapen-like kinase 1 (Homo sapiens)

>  <readout>
inhibition

>  <numeric_readout>
7.44

$$$$
>  <structure_smiles_string>
Cc1cccc(Nc2ncc(-c3ccccc3)o2)c1

>  <assayed_target>
Misshapen-like kinase 1 (Homo sapiens)

>  <readout>
inhibition

>  <numeric_readout>
2.9

$$$$
>  <structure_smiles_string>
c1ccc(-c2nc3n(c2-c2ccc4c(c2)OCO4)CCC3)nc1

>  <assayed_target>
Misshapen-like kinase 1 (Homo sapiens);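 note: mean inhibition value reported, from GSK PKIS kinase profiling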

>  <readout>
inhibition

>  <numeric_readout>
3.49

$$$$
